Each entry below carries its recorded IC50.
TARGET: DRB1*0101 (DR1) (Homo sapiens, UniProt P01903+P01911, A100R/D57E/F55L/F60I/F76Y/I96L/L162R/M171V/P40L/Q125E/R42F/V115G/Y59C)
Construct: used as sources of human HLA class II molecules; endogenous in cells; host or cells: LG2 (EBV-transformed homozygous B cell line)
PROTOCOL TEXT: Class II peptide-binding assay, DR1;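 also: competition assay: unlabeled test peptides inhibit binding of a radiolabeled probe peptide to purified DR, with half-maximal inhibition taken as an approximate dissociation constant Kd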
CONDITION NOTES: read-out: DR1 nM (In IC50 Format); purified HLA DR1
Ends that are not written are not given here.
QUANTITY: IC50

{"SUBSTANCE": "LLVIVELIPSTSS [Peptide 778.00]", "RESULT": "67.6 nM"}
{"SUBSTANCE": "YARFQSQTPLKAKT-NH2 [Peptide 717.37]", "RESULT": "2.5 nM"}
{"SUBSTANCE": "Ac-AFAAAATLKA-NH2 [Peptide 770.02]", "RESULT": "35.7 nM"}
{"SUBSTANCE": "YARFASQTTLKAKT-NH2 [Peptide 782.02]", "RESULT": "3.6 nM"}
{"SUBSTANCE": "LMAMGITDVFSSSANLSGI [Peptide 705.08]", "RESULT": "417 nM"}
{"SUBSTANCE": "YARFQSQETLKAKT-NH2 [Peptide 717.17]", "RESULT": "6 nM"}

---

Each entry below carries its recorded IC50.
TARGET: DRB5*0101 (DR2w2a) (Homo sapiens, UniProt P01903+Q30154)
Construct: used as sources of human HLA class II molecules; endogenous in cells; host or cells: GM3107 (EBV-transformed homozygous B cell line)
PROTOCOL TEXT: Class II peptide-binding assay, DR2w2a (DR2w2B2);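 also: competitive binding assay: unlabeled peptide inhibiting binding of a radiolabeled probe peptide to purified DR molecules at pH 7.0, IC50 approximating Kd, lower means stronger binding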
CONDITION NOTES: read-out: DR2w2B2 nM (In IC50 Format); purified HLA DR2w2β2
Ends that are not written are not given here.

{"SUBSTANCE": "YARFQSQATLKAKT-NH2 [Peptide 717.53]", "TARGET": "DRB5*0101 (DR2w2a) (Homo sapiens, UniProt P01903+Q30154)", "IC50 (nM)": 167}
{"SUBSTANCE": "YARFQSQTTIKAKT-NH2 [Peptide 717.19]", "TARGET": "DRB5*0101 (DR2w2a) (Homo sapiens, UniProt P01903+Q30154)", "IC50 (nM)": 143}
{"SUBSTANCE": "YARFQRQTTLKAAA-NH2 [Peptide 717.10]", "TARGET": "DRB5*0101 (DR2w2a) (Homo sapiens, UniProt P01903+Q30154)", "IC50 (nM)": 55.6}
{"SUBSTANCE": "YARFQSQTALKAKT-NH2 [Peptide 717.52]", "TARGET": "DRB5*0101 (DR2w2a) (Homo sapiens, UniProt P01903+Q30154)", "IC50 (nM)": 15.4}
{"SUBSTANCE": "LVHSSNNFGAILSSTNVGS [Peptide 735.04]", "TARGET": "DRB5*0101 (DR2w2a) (Homo sapiens, UniProt P01903+Q30154)", "IC50 (nM)": 5000}
{"SUBSTANCE": "YARFQAQTTLKAKT-NH2 [Peptide 717.55]", "TARGET": "DRB5*0101 (DR2w2a) (Homo sapiens, UniProt P01903+Q30154)", "IC50 (nM)": 90.9}
{"SUBSTANCE": "YARFQSETTEKAKT-NH2 [Peptide 717.07]", "TARGET": "DRB5*0101 (DR2w2a) (Homo sapiens, UniProt P01903+Q30154)", "IC50 (nM)": 5000}
{"SUBSTANCE": "YARFQRQTTLKIAT [Peptide 716.01]", "TARGET": "DRB5*0101 (DR2w2a) (Homo sapiens, UniProt P01903+Q30154)", "IC50 (nM)": 95.2}
{"SUBSTANCE": "AAFAAAAAQRLFA-NH2 [Peptide 761.01]", "TARGET": "DRB5*0101 (DR2w2a) (Homo sapiens, UniProt P01903+Q30154)", "IC50 (nM)": 1.2}
{"SUBSTANCE": "RLANSLVHSSNNFGAILSS [Peptide 735.03]", "TARGET": "DRB5*0101 (DR2w2a) (Homo sapiens, UniProt P01903+Q30154)", "IC50 (nM)": 10000}
{"SUBSTANCE": "YARFQSQTTLKART-NH2 [Peptide 717.25]", "TARGET": "DRB5*0101 (DR2w2a) (Homo sapiens, UniProt P01903+Q30154)", "IC50 (nM)": 64.5}
{"SUBSTANCE": "ASQKRPSQRSKYLATAST [Peptide 765.011]", "TARGET": "DRB5*0101 (DR2w2a) (Homo sapiens, UniProt P01903+Q30154)", "IC50 (nM)": 2500}
{"SUBSTANCE": "YARFQSNTTLKAKT-NH2 [Peptide 717.47]", "TARGET": "DRB5*0101 (DR2w2a) (Homo sapiens, UniProt P01903+Q30154)", "IC50 (nM)": 444}
{"SUBSTANCE": "CPIAIMSALAMVYLGAKDS [Peptide 705.04]", "TARGET": "DRB5*0101 (DR2w2a) (Homo sapiens, UniProt P01903+Q30154)", "IC50 (nM)": 408}
{"SUBSTANCE": "YARFASQTTLKAKT-NH2 [Peptide 782.02]", "TARGET": "DRB5*0101 (DR2w2a) (Homo sapiens, UniProt P01903+Q30154)", "IC50 (nM)": 191}
{"SUBSTANCE": "NPVVHFFKNIVTPRTPPPS [Peptide 765.09]", "TARGET": "DRB5*0101 (DR2w2a) (Homo sapiens, UniProt P01903+Q30154)", "IC50 (nM)": 158}
{"SUBSTANCE": "AFAAAATLKA-NH2 [Peptide 770.01]", "TARGET": "DRB5*0101 (DR2w2a) (Homo sapiens, UniProt P01903+Q30154)", "IC50 (nM)": 43.1}
{"SUBSTANCE": "YARFQSQTSLKAKT-NH2 [Peptide 717.31]", "TARGET": "DRB5*0101 (DR2w2a) (Homo sapiens, UniProt P01903+Q30154)", "IC50 (nM)": 143}
{"SUBSTANCE": "LSGSHLVEALYLVSGERGFF [Peptide 734.02]", "TARGET": "DRB5*0101 (DR2w2a) (Homo sapiens, UniProt P01903+Q30154)", "IC50 (nM)": 2860}
